# Tested on: SN12C renal
# assayMethodText: NCI-60 one-dose screen, 48 h (100 = growth as untreated, 0 = no growth, -100 = all killed)
# testContext: 10 µM
About 83,000 compounds went through this panel and 20% of them were active in at least one assay; those are over-represented in the sample as a whole.

compound	growth [%]
CCCN(CCC)CCCNC(=O)c1cc2c(-c3ccc(OC)c(OC)c3)nn(C)c2s1	20.8
O=C(O)c1ccc(CNc2ccc(C(=O)CCl)cc2)cc1	99.3
Cc1nnc2c3nnc(-c4ccc(Cl)cc4)n3c3ccccc3n12	97.7
Clc1ccc(-c2nc(-c3cccs3)cn3ccnc23)cc1	85.3
CN(C)c1ccc2cc(-c3cc4c(oc3=O)-c3ccccc3OC4O)c(=O)oc2c1 (stereo unspecified)	57.9
COc1ccc(-c2nsc3c2NC(=O)CC3c2ccc(Cl)cc2)cc1 (stereo unspecified)	83.8
Fc1ccc(Nc2ccnc(N3CCN(c4ccnc5cc(Cl)ccc45)CC3)n2)cc1	49
Cn1c(=O)c2[nH]c(C(O)c3ccc(Cl)cc3)nc2n(C)c1=O (stereo unspecified)	89.8
CCOc1nc(-c2ccccc2)cc2c(O)c(C(=O)N/N=C/c3ccc(OC)cc3)[nH]c(=O)c12	114
Nc1nc(SCC#CCCl)c2[nH]cnc2n1	44.8
CC1(C)CC(=O)c2c(nc3ccc(Cl)cc3c2-c2ccccc2)C1	92.5

====

# System: A549/ATCC NSCLC
# assayMethodText: NCI-60 one-dose screen, 48 h (100 = growth as untreated, 0 = no growth, -100 = all killed)
# testContext: 10 µM
The panel holds about 83,000 compounds, 20% with a hit somewhere; the sample as a whole holds those more often.
Output Criterion met for growth not less than 30%; output Criterion not met otherwise.

compound	assignedCategory
N#Cc1ccc(-n2cnc(NC(=O)[C@H]3CCN(C#N)C3)c2)cc1	Criterion not met
CCOc1nc(-c2ccccc2)cc2c(O)c(C(=O)NC(C)C)[nH]c(=O)c12	Criterion met
N=C(N)c1ccc(-c2ccc(-c3ccccc3)s2)cc1F	Criterion not met
CC(=O)OC1Oc2ccccc2-c2oc(=O)c(-c3ccc(F)cc3)cc21 (configuration not stated)	Criterion met
S=c1c2ncccc2c(-c2ccccn2)nn1Cc1ccccn1	Criterion met
C[C@@H]1N=C(c2ccc(Br)cc2)Nc2nc3ccccn3c2C1=O	Criterion met
COc1cc(-c2n/c(=C\c3c(O)[nH]c4ccccc34)cc3c2=Nc2ccccc2-3)cc(OC)c1OC	Criterion not met
Oc1ccccc1-c1nnc(Cn2c(Cc3cccc4ccccc34)nc3ccccc32)o1	Criterion met
O=C(O)CCCCSCCCCC(=O)O	Criterion met
CS(=O)(=O)Nc1ccc(Nc2c3ccccc3nc3cc(Cl)ccc23)cc1	Criterion not met
CCCCCCCCCCCCCC[n+]1ccc(C)cc1	Criterion not met
COc1ccc(CCc2nc3cc(-c4c(C)noc4C)ccc3n2CCN2CCOCC2)cc1	Criterion not met
COc1ccc2oc(=O)cc(C(c3ccc[nH]3)c3ccc[nH]3)c2c1	Criterion not met
Cc1ccc(NC(=O)/C=N/O)cc1C	Criterion met
CCOC(=O)c1cc2c(n1Cc1cccc(OC)c1)-c1oncc1CC2	Criterion met
COc1ccc(C2C=C(c3ccc(Cl)c(Cl)c3)N=C3SC(C)=CN32)cc1 (configuration not stated)	Criterion met
COc1ccc(C2C=C(c3ccc(Cl)c(Cl)c3)N=C3SC(C)=CN32)cc1OC (configuration not stated)	Criterion met
COc1cc(Cn2c(-c3ccccc3)cc3c2-c2oncc2CC3)cc(OC)c1	Criterion not met
CC1(C)Cc2c(cn(Cc3ccccc3)c2-c2ccccc2)-c2oncc21	Criterion met
CCCn1c(=O)c2c(nc(-c3cccc(OCCCCl)c3)n2C)n(CCC)c1=O	Criterion not met
O=C/C=C/c1ccc([N+](=O)[O-])cc1Cl	Criterion met
Cc1ccc2nc(-c3ccc(OCC(=O)N=Nc4c(O)[nH]c5ccccc45)cc3)[nH]c2c1	Criterion met

====

Reported growth values are given for each entry in this list.
# System: SN12C renal
# assayMethodText: NCI-60 one-dose screen, 48 h (100 = growth as untreated, 0 = no growth, -100 = all killed)
# testContext: 10 µM
Compounds without any hit were thinned out: in the full panel of roughly 83,000, 20% have a hit.

molecule	readingUnit	growth
C/C(=N\NC(=S)N1CCCC1)c1ccccn1	%	14.3
O=C1/C(=C/c2ccc([N+](=O)[O-])s2)Oc2ccc(Cl)cc21	%	-54.3
CC1(C)CCc2cc(-c3ccn(S(=O)(=O)c4ccc(Cl)cc4)n3)ccc2O1	%	72.8
OC(CNC1CCCC1)Cn1c2ccccc2c2ccccc21 (stereo unspecified)	%	50.7
COc1c(C)c(C)c(OC)c2c1[nH]c(=O)c1c3cccnc3cn21	%	99.5
NS(=O)(=O)c1ccc(N2N=C(c3ccc(-c4ccccc4)cc3)CC2c2ccc(Cl)cc2)cc1 (stereo unspecified)	%	67.4
O=C(O)CN1C(=O)C=CC1=O	%	106
CCOCC[P+](c1ccccc1)(c1ccccc1)c1ccccc1	%	59
CCCCCCCCCCCCCC[n+]1ccccc1	%	-41.8
Cc1ccc(-n2nnc3c(sc4ccccc43)c2=O)cc1	%	76.7
CC(=O)Oc1c(C)c(C)c2c(c1C)CCC(C)(CC(=O)OCCCCCCCCCCC[P+](c1ccccc1)(c1ccccc1)c1ccccc1)O2 (stereo unspecified)	%	-82.3

====

# System: IGROV1 ovarian
# assayMethodText: NCI-60 one-dose screen, 48 h (100 = growth as untreated, 0 = no growth, -100 = all killed)
# testContext: 10 µM
Compounds without any hit were thinned out: in the full panel of roughly 83,000, 20% have a hit. The source made the active and inactive calls. The calls were made as follows: active = growth percent below 10; inactive = the rest.
measure: growth

compound	assayedTarget	measure	experimentalResult
COc1cc(CSc2nc3ccc(Cl)cc3c(=O)n2-c2ccccc2)cc(OC)c1OC	IGROV1 ovarian	growth	72.5% (inactive)
COc1ccc(Cn2cc3c(c2-c2cc(OC)c(OC)c(OC)c2)CCc2cnoc2-3)cc1N	IGROV1 ovarian	growth	7.25% (active)
O=C(N/N=C/c1ccccc1O)c1ccccc1	IGROV1 ovarian	growth	22.1% (inactive)
Nc1ncc(-c2ccc(C(F)(F)F)cc2)c(NC2CCCCCC2)n1	IGROV1 ovarian	growth	58.6% (inactive)
O=C(NCCCl)c1cc(Cl)cc(Cl)c1	IGROV1 ovarian	growth	106% (inactive)
CCc1nn2c(-c3ccccc3)c(-c3cc(OC)c(OC)c(OC)c3)nc2s1	IGROV1 ovarian	growth	87.3% (inactive)
COc1ccc(/C(=C/c2cc(OC)c(OC)cc2[N+](=O)[O-])C(=O)O)cc1	IGROV1 ovarian	growth	107% (inactive)
CCN(CC)CCn1c(=N)n(CC(O)c2ccc(Cl)c(Cl)c2)c2ccccc21 (stereo unspecified)	IGROV1 ovarian	growth	90.1% (inactive)
COc1ccc(C(=O)c2sc3nc(-c4cccs4)ccc3c2N)cc1OC	IGROV1 ovarian	growth	63.3% (inactive)
C/C(=N/NC(=O)c1sc(=S)n(C)c1N)c1cc2cc(Cl)ccc2o1	IGROV1 ovarian	growth	51.6% (inactive)
Cc1ccc(S(=O)(=O)Nc2cccc3[nH]c(C(F)(F)F)nc23)cc1	IGROV1 ovarian	growth	51.4% (inactive)
Cc1ccc2nc(-c3ccc(OCC(=O)N=Nc4c(O)[nH]c5ccccc45)cc3)[nH]c2c1	IGROV1 ovarian	growth	85.8% (inactive)
COc1cc(-c2cc(/C=C/C(C)=O)[nH]n2)cc(OC)c1OC	IGROV1 ovarian	growth	73.8% (inactive)
O=c1oc2c3ccc4cnccc4c3[nH]c2c2ccccc12	IGROV1 ovarian	growth	21.2% (inactive)
CC(=O)N(O)c1ccc(/C=C/c2ccccc2)cc1	IGROV1 ovarian	growth	-14% (active)
O=c1c2cccc3c(Nc4ccc(Br)cn4)ccc(c32)c2nc3ccccc3n12	IGROV1 ovarian	growth	48.9% (inactive)
C/C(=N\NC(=S)N1CCCC1)c1ccccn1	IGROV1 ovarian	growth	-3.85% (active)
Cc1ccc(Cl)cc1Nc1nc(C(F)(F)F)ccc1C(=O)N/N=C/c1c(Cl)cccc1Cl	IGROV1 ovarian	growth	-8.67% (active)
COc1cc(C)c2sc3ccccc3c(=O)c2c1NCCN(C)C	IGROV1 ovarian	growth	29.3% (inactive)
COc1ccccc1S(=O)(=O)Nc1ccc2c(c1)CN(C)C(=O)N2	IGROV1 ovarian	growth	24% (inactive)
O=C(NCc1cn(Cc2cccc(Oc3ccccc3)c2)nn1)c1cccnc1Nc1ccccc1	IGROV1 ovarian	growth	94.1% (inactive)
N#CN1CC[C@H](C(=O)Nc2ncc(-c3ccccc3)s2)C1	IGROV1 ovarian	growth	11% (inactive)
FC(F)(F)c1ccc(-c2cnc(Cl)nc2NCc2cc(C(F)(F)F)cc(C(F)(F)F)c2)cc1	IGROV1 ovarian	growth	45.5% (inactive)
COc1ccc(-c2nnc(COc3ccc(NC(=O)Nc4ccccc4)cc3F)o2)cc1	IGROV1 ovarian	growth	99.2% (inactive)
COC(=O)c1ccc(Cn2ccc(=O)[nH]c2=O)cc1	IGROV1 ovarian	growth	114% (inactive)
COc1cccc(C(=O)NNc2nc(N3CCOCC3)nc(N3CCN(C(c4ccccc4)c4ccccc4)CC3)n2)c1	IGROV1 ovarian	growth	67.4% (inactive)
COc1ccccc1NC1=C(N2CCCCC2)C(=O)c2ccccc2C1=O	IGROV1 ovarian	growth	100% (inactive)
COc1ccc(-c2ccccc2)cc1C(=O)c1ccc(-c2ccccc2)cc1	IGROV1 ovarian	growth	63.5% (inactive)
COc1cc(CSc2nc3ccc(Cl)cc3c(=O)n2Cc2ccccc2)cc(OC)c1OC	IGROV1 ovarian	growth	35.3% (inactive)
COc1ccc2nc(C)cc(Nc3ccc(Cl)cc3)c2c1	IGROV1 ovarian	growth	98.2% (inactive)
C=C[C@]1(C)C=C2C(=O)[C@@]3(O)OC(=O)[C@@]4(CCCC(C)(C)[C@H]34)[C@@]2(O)CC1	IGROV1 ovarian	growth	-92.8% (active)
CCCCCC(=O)N1c2ccccc2NC2=C(C(=O)CC(c3ccc(OC)c(OC)c3)C2)C1c1ccc(C(F)(F)F)cc1 (stereo unspecified)	IGROV1 ovarian	growth	63% (inactive)
CC(C)CCN(CCCNc1c2c(nc3cc(Cl)ccc13)CCCC2)CCC(C)C	IGROV1 ovarian	growth	50.2% (inactive)
O=C(N/N=c1/ccoc2cccnc12)N1CCN(c2ncccn2)CC1	IGROV1 ovarian	growth	31.4% (inactive)
Cc1ccc(-n2nnc3c(sc4ccccc43)c2=O)cc1	IGROV1 ovarian	growth	23.5% (inactive)
CC(=O)OC1Oc2ccccc2-c2oc(=O)c(-c3cc(=O)oc4cc(O)ccc34)cc21 (stereo unspecified)	IGROV1 ovarian	growth	49.4% (inactive)
COc1nc2c(c(=O)[nH]1)C(c1ccc(Oc3ccnc4cc(Cl)ccc34)c(OC)c1)C=C(c1cc(OC)c(OC)c(OC)c1)N2 (stereo unspecified)	IGROV1 ovarian	growth	107% (inactive)
O=C(COc1ccc(-c2nc3ccccc3[nH]2)cc1)N=Nc1c(O)[nH]c2ccccc12	IGROV1 ovarian	growth	99.5% (inactive)
Cc1cc2cc3c(=O)[nH]c(=O)cc-3n(CC(O)C(O)C(O)CO)c2cc1C (stereo unspecified)	IGROV1 ovarian	growth	112% (inactive)
Cn1c([N+](=O)[O-])cnc1C=C1C(=O)c2ccccc2C1=O	IGROV1 ovarian	growth	13.8% (inactive)
C[C@]12CC[C@H]3[C@@H](CC=C4C[C@@H](O)CC[C@@]43C)[C@@H]1CC[C@@H]2C(=O)C/C=N/O	IGROV1 ovarian	growth	76.7% (inactive)
